procedureDetails: glass transition temperature (Tg) of the drug
Type: physicochemical
cond: Table B; unless noted Tg measured at less than 10% RH
metric: Tg (°C)
Answers are plain numbers, in °C.

As a guide, the following entries are already answered.
{"compound": "O=C(N[C@@H](Cc1ccccc1)[C@@H](O)C(=O)N1C[C@@H](O)[C@@H](O)C1)c1cc2cc(Cl)ccc2[nH]1 [Drug 1]", "endpointUnit": "°C", "valueReported": 96}
{"compound": "Cl.Cl.O=C(O)COCCN1CCN(C(c2ccccc2)c2ccc(Cl)cc2)CC1 (centres unmarked)", "endpointUnit": "°C", "valueReported": 112}
{"compound": "CCCc1nn(C)c2c(=O)[nH]c(-c3cc(S(=O)(=O)N4CCN(C)CC4)ccc3OCC)nc12", "endpointUnit": "°C", "valueReported": 135}
{"compound": "CC(C)c1c(C(=O)Nc2ccccc2)c(-c2ccccc2)c(-c2ccc(F)cc2)n1CCC(O)CC(O)CC(=O)[O-].CC(C)c1c(C(=O)Nc2ccccc2)c(-c2ccccc2)c(-c2ccc(F)cc2)n1CCC(O)CC(O)CC(=O)[O-].O.O.O.[Ca+2] (centres unmarked)", "endpointUnit": "°C", "valueReported": 111}

We next turn to a different compound, shown below.
Enquiry: Report Tg, nothing else, for this compound: O=C1Cc2cc(CCN3CCN(c4nsc5ccccc45)CC3)c(Cl)cc2N1 [Ziprasidone]
Return: 72
